Test system: AMP-activated protein kinase (AMPK)
Test: ADP Quest assay for AMPK activators
Format: biochemical
Parameters: key: fold AMPK activation with vs without activator at 30 µM
Conditions: fold of AMPK activation to phosphorylate SAMS peptide without and with an activator at the concentration of 30 µM
Description: ADP Quest™ Assay for AMPK Activators This method evaluates AMP-activated protein kinase (AMPK) activity through detecting the accumulation of ADP product using an ADP Quest kit and determining the E30 values of the small molecular AMPK activators. ADP Quest kit (DiscoveRx, Fremont, Calif.) is stored at −20° C. before use. […] The reaction fluorescence signal is monitored and recorded on Envision in kinetic mode with the excitation wavelength of 530 nm and emission wavelength of 590 nm. […]
The following molecules are shown together with reported E30 values.

Challenge: Looking for the measured E30 of CC1CN(c2cccc(C3Nc4ccc(C(=O)NS(=O)(=O)C5CC5)cc4CC3(C)C)c2)CC(C)O1 (stereo not drawn) , can you help?
Response given: 1.35

Challenge: Try this molecule next: CC(C)[C@@H]1COC(=O)N1c1cccc(C2Nc3ccc(C(=O)NS(C)(=O)=O)cc3CC2(C)C)c1 (stereo partly drawn)
Response given: 1.36

Challenge: Try this molecule next: CC1(C)Cc2cc(C(=O)NS(C)(=O)=O)ccc2NC1c1cccc(N2C(=O)OC[C@H]2Cc2ccccc2)c1 (stereo partly drawn)
Response given: 1.26

Challenge: Try this molecule next: CC1(C)Cc2cc(C(=O)O)ccc2NC1c1ccccc1NC(=O)c1ccccn1 (stereo not drawn)
Response given: 1.28

Challenge: Try this molecule next: CC1(C)Cc2cc(C(=O)NS(C)(=O)=O)ccc2NC1c1ccc(N2CCOCC2)cc1 (stereo not drawn)
Response given: 1.19

Challenge: Try this molecule next: CC1(C)Cc2cc(C(=O)O)ccc2NC1c1cccc(C(=O)O)c1 (stereo not drawn)
Response given: 1.31

Challenge: Try this molecule next: CC(C)C(=O)Nc1cc(C2Nc3ccc(C(=O)O)cc3CC2(C)C)ccc1Cl (stereo not drawn)
Response given: 1.4

Challenge: Try this molecule next: CC(C)(Nc1ccccc1C1Nc2ccc(C(=O)O)cc2CC1(C)C)C(=O)O (stereo not drawn)
Response given: 3.68

Challenge: Try this molecule next: Cc1ccc(S(=O)(=O)Nc2ccc(C3Nc4ccc(C(=O)O)cc4CC3(C)C)cc2)cc1 (stereo not drawn)
Response given: 1.25

Challenge: Try this molecule next: Cc1ccc(N2CCN(c3cccc(C4Nc5ccc(C(=O)NS(=O)(=O)C6CC6)cc5CC4(C)C)c3)CC2)c(C)c1 (stereo not drawn)
Response given: 1.31

Challenge: Try this molecule next: CC(C)(C)NC(=O)c1ccc(-c2cccc(C3Nc4ccc(C(=O)O)cc4CC3(C)C)c2)cc1 (stereo not drawn)
Response given: 1.2

Challenge: Try this molecule next: Cc1ccccc1N1CCN(c2cccc(C3Nc4c(cc(Cl)cc4C(=O)O)CC3(C)C)c2)CC1 (stereo not drawn)
Response given: 1.5

Challenge: Try this molecule next: CC1(C)Cc2cc(C(=O)NS(C)(=O)=O)ccc2NC1c1cccc(N2CCOC2=O)c1 (stereo not drawn)
Response given: 1.24

Challenge: Try this molecule next: CCc1nnnn1-c1cccc(C2Nc3ccc(C(=O)NS(C)(=O)=O)cc3CC2(C)C)c1 (stereo not drawn)
Response given: 1.21

Challenge: Try this molecule next: Cc1ccc(N2CCN(c3cccc(C4Nc5ccc(C(=O)O)cc5CC4(C)C)c3)CC2)c(C)c1 (stereo not drawn)
Response given: 1.3

Challenge: Try this molecule next: CC1(C)Cc2cc(C(=O)O)ccc2NC1c1ccccc1 (stereo not drawn)
Response given: 1.34

Challenge: Try this molecule next: CC1(C)Cc2cc(C(=O)O)cc(Cl)c2NC1c1cccc(N2CCOCC2)c1 (stereo not drawn)
Response given: 1.22

---

The following compounds are shown together with reported E30 values.
system: AMP-activated protein kinase (AMPK); assay: ADP Quest assay for AMPK activators; assay type: biochemical; parameters: key: fold AMPK activation with vs without activator at 30 µM; conditions: fold of AMPK activation to phosphorylate SAMS peptide without and with an activator at the concentration of 30 µM
Reply briefly: the number, and no unit.

Worked cases, E30 given:
{"compound": "CC1(C)Cc2cc(C(=O)NS(C)(=O)=O)ccc2NC1c1cccc(N2CCNCC2)c1 (centres unmarked) [Example 103]", "E30": 1.37}
{"compound": "CN(C)c1cc(F)cc(C2Nc3ccc(C(=O)NS(C)(=O)=O)cc3CC2(C)C)c1 (centres unmarked) [Example 50]", "E30": 1.61}
{"compound": "CN1CCC(NC(=O)c2cccc(C3Nc4c(cccc4C(=O)O)CC3(C)C)c2)C1 (centres unmarked) [Example 224]", "E30": 1.43}
{"compound": "CN(C)CCNC(=O)c1cccc(C2Nc3ccc(C(=O)O)cc3CC2(C)C)c1 (centres unmarked) [Example 203]", "E30": 1.53}
{"compound": "CC(C)[C@@H]1COC(=O)N1c1cccc(C2Nc3ccc(C(=O)NS(=O)(=O)C4CC4)cc3CC2(C)C)c1 (some centres unmarked) [Example 125]", "E30": 1.33}
{"compound": "CC(C)(C)c1ccc(-c2cncc(C3Nc4ccc(C(=O)O)cc4CC3(C)C)c2)cc1 (centres unmarked) [Example 46]", "E30": 1.46}
{"compound": "CC(=O)Nc1cccc(C2Nc3ccc(C(=O)O)cc3CC2(C)C)c1 (centres unmarked) [Example 204]", "E30": 1.4}

// moving on: another record for E30
Challenge: Request: E30, test system AMP-activated protein kinase (AMPK), entry CC1(C)Cc2cc(C(=O)O)ccc2NC1c1cccc(N2CCN(c3ccccc3)C2=O)c1 (centres unmarked) [Example 26]
Response given: 1.27

---

system: AMP-activated protein kinase (AMPK); test: ADP Quest assay for AMPK activators; assay type: biochemical; design: key: fold AMPK activation with vs without activator at 30 µM; settings: fold of AMPK activation to phosphorylate SAMS peptide without and with an activator at the concentration of 30 µM
The following compounds are shown together with reported E30 values.
Reply briefly: the number, and no unit.

Worked cases, E30 given:
{"compound": "CC1(C)Cc2cc(C(=O)NS(=O)(=O)C3CC3)ccc2NC1c1cncc(N2CCOCC2)c1 (stereo not shown)", "result": 1.21}
{"compound": "COc1cccc(C2Nc3ccc(C(=O)N4CCC(C)(O)C4)cc3CC2(C)C)c1 (stereo not shown)", "result": 1.29}

Challenge: Looking for the measured E30 of CC1(C)Cc2c(cc(Cl)cc2C(=O)NS(C)(=O)=O)NC1c1cccc(N2CCOCC2)c1 (stereo not shown) , can you help?
Response given: 1.26

Challenge: Try this compound next: CC1(C)Cc2cc(C(=O)O)ccc2NC1c1cccc(NC(=O)NCc2ccccc2)c1 (stereo not shown)
Response given: 1.43

---

The following molecules are shown together with reported E30 values.
system: AMP-activated protein kinase (AMPK); test: ADP Quest assay for AMPK activators; format: biochemical; design: key: fold AMPK activation with vs without activator at 30 µM; settings: fold of AMPK activation to phosphorylate SAMS peptide without and with an activator at the concentration of 30 µM
Reply briefly: the number, and no unit.

Worked cases, E30 given:
{"molecule": "CC1(C)Cc2cc(C(=O)NS(=O)(=O)C3CC3)ccc2NC1c1ccc(N2CCOCC2)cc1 (centres unmarked)", "target-system": "AMP-activated protein kinase (AMPK)", "property-name": "E30", "result": 1.21}
{"molecule": "CC(C)NC(=O)c1ccc(-c2cccc(C3Nc4ccc(C(=O)O)cc4CC3(C)C)c2)cc1 (centres unmarked)", "target-system": "AMP-activated protein kinase (AMPK)", "property-name": "E30", "result": 1.31}
{"molecule": "COC(=O)c1cc(Cl)cc2c1NC(c1cccc(NC(C)(C)C(=O)O)c1)C(C)(C)C2 (centres unmarked)", "target-system": "AMP-activated protein kinase (AMPK)", "property-name": "E30", "result": 1.79}

Challenge: Looking for the measured E30 of CC1(C)Cc2cc(C(=O)O)ccc2NC1c1cccc(NC(=O)Nc2cccc(F)c2)c1 (centres unmarked) , can you help?
Response given: 1.21

Challenge: Try this molecule next: CNC(=O)C(C)(C)Nc1cccc(C2Nc3c(cc(Cl)cc3C(=O)O)CC2(C)C)c1 (centres unmarked)
Response given: 1.33

---

system: AMP-activated protein kinase (AMPK); assay: ADP Quest assay for AMPK activators; format: biochemical; design: key: fold AMPK activation with vs without activator at 30 µM; conditions: fold of AMPK activation to phosphorylate SAMS peptide without and with an activator at the concentration of 30 µM
property-name: E30
Reply briefly: the number, and no unit.

Worked cases, E30 given:
{"molecule": "CC1(C)Cc2cc(Cl)cc(C(=O)O)c2NC1c1cccc(N2CCOCC2)c1 (stereo not shown)", "property-name": "E30", "result": 1.4}
{"molecule": "CC(C)(Nc1cccc(C2Nc3ccc(C(F)(F)F)cc3CC2(C)C)c1)C(=O)O (stereo not shown)", "property-name": "E30", "result": 2.41}
{"molecule": "Cc1cc(C2Nc3ccc(C(=O)NS(=O)(=O)C4CC4)cc3CC2(C)C)cc(N2CCOCC2)c1 (stereo not shown)", "property-name": "E30", "result": 1.48}
{"molecule": "CNC(=O)C(C)(C)Nc1cccc(C2Nc3ccc(C(=O)NS(=O)(=O)C4CC4)cc3CC2(C)C)c1 (stereo not shown)", "property-name": "E30", "result": 1.23}
{"molecule": "CC1(C)Cc2cc(C(=O)O)ccc2NC1c1cccc(NC(=O)N2CCCCC2)c1 (stereo not shown)", "property-name": "E30", "result": 1.39}

// moving on: another record for E30
Challenge: Looking for the measured E30 of CC1(C)Cc2cc(C(=O)O)ccc2NC1c1cccc(C(=O)NC2CC2)c1 (stereo not shown) , can you help?
Response given: 1.36
